Target: Human FRA on IGROV-1 human ovarian adenocarcinoma cells (human, UniProt P15328 25-234)
Sequence (P15328 25-234 limits assumed): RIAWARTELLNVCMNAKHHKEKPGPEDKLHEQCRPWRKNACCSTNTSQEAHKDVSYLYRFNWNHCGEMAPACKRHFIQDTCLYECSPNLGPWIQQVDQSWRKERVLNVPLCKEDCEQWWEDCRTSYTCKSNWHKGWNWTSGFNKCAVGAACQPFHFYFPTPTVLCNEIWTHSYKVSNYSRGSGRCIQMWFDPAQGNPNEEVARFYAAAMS
Test: cell-based or functional assay

binder	INTL % (60 min)
MORAb-003 anti-FRA antibody, lot NB809-69 (10 mM Na butyrate; harvested 13 days after initiation of culture) (antibody, human IgG1, kappa, V domains shown, N-linked neutral glycans at Asn299 in SEQ ID NO: 5) VH: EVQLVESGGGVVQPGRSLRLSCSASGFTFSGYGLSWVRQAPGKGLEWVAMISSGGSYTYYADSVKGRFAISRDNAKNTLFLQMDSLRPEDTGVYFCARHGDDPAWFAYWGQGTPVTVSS VL: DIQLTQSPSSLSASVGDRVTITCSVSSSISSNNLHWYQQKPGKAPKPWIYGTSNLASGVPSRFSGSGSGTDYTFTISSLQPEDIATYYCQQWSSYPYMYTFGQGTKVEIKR	36%
MORAb-003 anti-FRA antibody, lot NB859-24 (harvested 10 days after initiation of culture) (antibody, human IgG1, kappa, V domains shown, N-linked neutral glycans at Asn299 in SEQ ID NO: 5, also called Day 10 harvest) VH: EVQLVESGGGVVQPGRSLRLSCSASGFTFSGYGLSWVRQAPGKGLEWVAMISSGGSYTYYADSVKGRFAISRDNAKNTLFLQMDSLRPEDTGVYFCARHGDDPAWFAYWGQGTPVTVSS VL: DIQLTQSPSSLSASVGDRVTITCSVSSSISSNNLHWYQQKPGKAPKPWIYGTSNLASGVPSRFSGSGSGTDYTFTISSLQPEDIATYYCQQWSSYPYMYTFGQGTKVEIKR	40%
MORAb-003 anti-FRA antibody, lot NB859-26 (harvested 17 days after initiation of culture) (antibody, human IgG1, kappa, V domains shown, N-linked neutral glycans at Asn299 in SEQ ID NO: 5, also called Day 17 harvest) VH: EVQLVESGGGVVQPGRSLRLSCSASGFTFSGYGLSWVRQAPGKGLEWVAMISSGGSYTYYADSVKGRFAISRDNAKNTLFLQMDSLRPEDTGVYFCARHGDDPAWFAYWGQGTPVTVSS VL: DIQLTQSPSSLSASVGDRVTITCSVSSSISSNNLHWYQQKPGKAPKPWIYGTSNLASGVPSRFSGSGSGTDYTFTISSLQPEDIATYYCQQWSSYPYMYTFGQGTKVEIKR	43%
MORAb-003 anti-FRA antibody, lot NB810-13 (high osmolarity; harvested 14 days after initiation of culture) (antibody, human IgG1, kappa, V domains shown, N-linked neutral glycans at Asn299 in SEQ ID NO: 5) VH: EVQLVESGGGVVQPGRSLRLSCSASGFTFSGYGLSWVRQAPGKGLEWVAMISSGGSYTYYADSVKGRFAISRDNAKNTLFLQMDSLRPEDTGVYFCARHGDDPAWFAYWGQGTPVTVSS VL: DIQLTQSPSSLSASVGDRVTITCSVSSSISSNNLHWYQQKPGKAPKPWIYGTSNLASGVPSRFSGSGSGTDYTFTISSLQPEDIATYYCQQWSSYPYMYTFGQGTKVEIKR	40%
